Cited source for all entries: PubChem BioAssay

Assay: plasmodial surface anion channel blockers, osmotic lysis – cell-based, P. falciparum Indochina, OD700, 1 h, primary screen (AID 1154)
Conditions: P. falciparum Indochina infected RBC osmotic lysis, called active from +8 up or from −8 down
Active and inactive are the calls of the source.
One label from this list, please: y for active, n for inactive

query: What classification did CCCCN1CC=CC23O[C@@H]4/C=C\CCCOC(=O)C4[C@H]2C(=O)N(CCCCCO)[C@@H]3C1=O (some centres undefined) end up with in this test?
result: n

query: Now try C=CCC(OC(C)=O)[C@@H]1[C@@H](N(Cc2ccc(-c3cccc(C(F)(F)F)c3)o2)C(=O)c2cccc3ccccc23)c2cc(OCCCO)ccc2N1C(=O)Cc1ccc2ccccc2c1 (some centres undefined) .
result: n

query: Now try `COC(=O)[C@@]1(Cc2ccc(F)cc2)[C@H]2c3cc(C(=O)N(C)C)n(Cc4cc(C)n(C)n4)c3C[C@H]2CN1C(=O)c1ccccc1` .
result: n

query: Now try `CC(C)[C@@H](C(=O)O)n1cc(C2(O)CCCCC2)nn1` .
result: n

Next:
query: What classification did `COc1ccc([Si](C)(C)[C@@H]2[C@@H](CC(=O)N3CCC[C@H]3CO)O[C@]3(C(=O)N(Cc4cccc(I)c4)c4ccccc43)[C@H]2C)cc1` end up with in this test?
result: n

query: Now try `Cc1c(NC(=O)/C(C#N)=C/c2cccc([N+](=O)[O-])c2)c(=O)n(-c2ccccc2)n1C` .
result: n

query: Now try `O=C1C[C@@](C(=O)NCc2ccccc2)(c2ccc([N+](=O)[O-])cc2)[C@@H](c2ccc(CO)cc2)N1CC12CC3CC(CC(C3)C1)C2` .
result: n

query: Now try `COc1cc(CO)cc(I)c1O[C@H]1C=C(C(=O)NCCO)C[C@@H](NC[C@@H]2CCCO2)[C@@H]1O` .
result: n

query: Now try `O=C1O[C@H](c2ccccc2)[C@H](c2ccccc2)N2[C@H]1[C@@H](C(=O)N1CCN(c3ncccn3)CC1)[C@]1(C(=O)Nc3ccc(C#CC4=CCCCC4)cc31)[C@H]2c1ccccc1OCCO` .
result: n

query: Now try O=C1C2C=CC(C(O)c3ccc(F)cc3)N(Nc3ccc([N+](=O)[O-])cc3)C2C(=O)N1c1ccccc1 (centres undefined) .
result: y

query: Now try `CN(C)CCCCCCNC(=O)[C@@H]1C[C@@H]2C(=O)N[C@@H](CCCC[N+](C)(C)C)C(=O)N2[C@@H]1c1ccc(O)cc1` .
result: n

query: Now try `O=C1N(CCS(=O)(=O)c2ccccc2)c2ccccc2[C@@H]2OC(c3ccc(OCCCO)cc3)=N[C@]12Cc1ccccc1` .
result: y

query: Now try `COC(=O)c1c(CC[C@@H](CO)NC(=O)N[C@H](Cc2ccccc2)Cn2cc(-c3ccccn3)nn2)oc(C(C)=O)c1C(=O)OC` .
result: y

query: Now try `[N-]=[N+]=Nc1ccccc1[C@H]1OC(c2ccc(OCCCO)cc2)=N[C@@]1(CCS(=O)(=O)c1ccccc1)C(=O)NCc1ccccc1` .
result: y

====

Please go through the items and note down their z-score.
Experiment: ATP-based viability of Huh7 replicon cells – cell-based, CellTiter-Glo luminescence, basal, 48 h, cytotoxicity control for HCV replication inhibitor project, primary screen (AID 1143);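 further: Huh7 hepatoma cells carrying a hepatitis C replication reporter with no stimulus; test concentration not given here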
Details: higher = more signal, called active from +8 up or from −8 down
Give bare numbers.

Sample answers from the record:
query: // z-score lookup, key: `C=C(C(=O)CC[C@H](OC(C)=O)c1ccccc1OCCO)C(C)C`
result: -8.56

query: Now try `COCCCNC(=O)[C@@]1(Sc2ccc(C)cc2)CC(=O)N(Cc2ccccc2Cl)[C@@H]1c1ccc(CO)cc1` .
result: -4.58

Can you give me z-score for all of these, one by one?
1. COc1cc(CO)cc(I)c1O[C@H]1C=C(C(=O)NCCO)C[C@@H](N(C(=O)c2cc3ccccc3oc2=O)C2CCCCCC2)[C@@H]1O
2. CC(CO)N1C(=O)[C@@H]2C3C(=O)OCCC/C=C\[C@H]3OC23C=CCN(CCN2CCOCC2)C(=O)[C@@H]13 (some centres not stated)

result:
1. -2.46
2. 0.795

Can you give me z-score for all of these, one by one?
1. [N-]=[N+]=NCc1ccccc1[C@@H]1OC(c2ccc(OCCCO)cc2)=N[C@]1(CCS(=O)(=O)c1ccccc1)C(=O)N1CCOCC1
2. COC(=O)[C@@]1(Cc2ccccc2)[C@H]2c3cc(C(=O)N(C)C)n(CCc4c[nH]c5ccc(O)cc45)c3C[C@H]2CN1C(=O)c1ccccc1
3. Cc1ccc(S(=O)(=O)N2C[C@@H](C(=O)O)[C@H](Sc3ccccc3)C[C@H]2c2ccccc2)cc1

result:
-4.07
-1.51
-0.763

====

Experiment: growth effects on S. cerevisiae YJM789 – YJM789 clinical isolate, OD600, 24 h, basal, primary screen (AID 1089);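 further: growth of clinical yeast isolate S. cerevisiae YJM 789 seeded 1000 cells per well; test concentration not given here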
Conditions: higher = more signal, called active from +8 up or from −8 down
# label = bin(measured z-score), where bins are low = under -0.5, middle = from -0.5 up to 0.07, high = 0.07 and over

query: Band assignment needed for `COc1ccc([C@H]2C[C@H]3C(Br)=C[C@@]2(CO)C(=O)[C@]32CO2)cc1` please.
result: low

query: Now try `NC(=O)[C@@]1(Cc2ccccc2)N=C(c2ccc(OCCCO)cc2)O[C@H]1c1ccccc1` .
result: high

query: Now try `COCC(=C=CC[C@H](O)c1ccccc1OCCO)CCO` .
result: low

query: Now try `CC[C@@H]1C=C(C(=O)O)[C@H](c2ccc(C)cc2)N1S(=O)(=O)c1ccc(C)cc1` .
result: low

query: Now try `CO[C@H]1O[C@H](CO)[C@@H](OC(=O)Nc2ccccc2)[C@@H]2OC(=O)[C@@H](Cc3ccc4ccccc4c3)C/C=C/C[C@H](Cc3ccc4ccccc4c3)C(=O)O[C@@H]12` .
result: low

====

System: Chordin-like protein 2 (CHRDL2)
Experiment: compounds binding chordin-like 2 – biochemical, small-molecule microarray, 635 nm fluorescence, primary screen (AID 1126);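 further: printed compound slides probed with Chrdl2 protein at 4 µg/mL for 1 h at 4 C; score merges 667 nm emission intensity with signal to noise over three replicate slides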
Details: fluorescence 635 nm, higher = more signal
# label = bin(measured composite z-score), where bins are low bin: < -0.06; mid bin: ≥ -0.06 and < 0.5; high bin: ≥ 0.5

Known results for compounds:
query: Band assignment needed for `CO[C@H]1O[C@H](CO)[C@@H](OC(=O)Nc2ccccc2-c2ccccc2)[C@H](OC(=O)Nc2ccccc2-c2ccccc2)[C@@H]1OC(=O)Nc1ccccc1-c1ccccc1` please.
result: mid bin

query: Now try `CC(=O)NCCCC[C@@H]1NC(=O)[C@H]2C[C@@H](C(=O)O)[C@@H](c3ccc(O)cc3)N2C1=O` .
result: high bin

query: Now try `CCCC=C(CCC)[C@@H](NC(=O)OCC(C)C)c1ccccc1` .
result: low bin

query: Now try CC1CC/C=C\[C@H]2OC34C=CCN(Cc5ccccc5)C(=O)[C@H]3N(C(C)CO)C(=O)[C@@H]4C2C(=O)O1 (stereo partly drawn) .
result: mid bin

query: Now try O=C1OCC=C[C@H]2OC34C=CCN(Cn5nnc6ccccc65)C(=O)[C@H]3N(CCCCCO)C(=O)[C@@H]4[C@@H]12 (stereo partly drawn) .
result: low bin

query: Now try `COCC(=C=CC[C@@H](O)c1ccc(OCCO)cc1)C[C@@H](O)c1ccccn1` .
result: mid bin

Next:
query: Band assignment needed for `COc1ccc(-c2cc3c(c(Cc4ccccc4)n2)[Si](C(C)C)(C(C)C)OC3)cn1` please.
result: mid bin

query: Now try `CC(C)[C@@H](C(=O)O)n1cc(C2(O)CCCCC2)nn1` .
result: low bin

====

Assay: JC-1 mitochondrial signal, unstimulated MM1S myeloma – cell-based, JC-1 fluorescence, 24 h, 100 nL compound, profiling panel (AID 1170); further: test concentration not given here
Conditions: MM1S mitochondrial potential, higher = more signal
# binarize z-score: threshold 0.3 inclusive, high side Satisfied, low side Not satisfied

Known results for molecules:
query: # bool: z-score of CC(C)=CCCC(C)=CC(O)C1C=CC2C(=O)N(c3ccccc3)C(=O)C2N1Nc1ccc(C(C)C)cc1 (configuration not stated) >= 0.3
result: Satisfied

query: Now try `COC(=O)[C@@]1(Cc2ccc(OC)cc2)[C@H]2c3cc(C(=O)N4CCCC4)n(CCCNc4ncc(C(F)(F)F)cc4Cl)c3C[C@H]2CN1C(=O)c1ccccc1` .
result: Not satisfied

query: Now try `O=C(CS)NCCCCCNC(=O)[C@@H]1C[C@@H]2C(=O)NCC(=O)N2[C@@H]1c1ccc(O)cc1` .
result: Not satisfied

query: Now try CC1CC/C=C\[C@H]2OC34C=CCN(c5ccc6ccccc6c5)C(=O)[C@H]3N(CCO)C(=O)[C@@H]4C2C(=O)O1 (some centres not stated) .
result: Satisfied

query: Now try `C=CC[C@@]1(C(=O)N2CCCCC2)N=C(c2ccc(OCCCO)cc2)O[C@@H]1c1ccccc1CN=[N+]=[N-]` .
result: Not satisfied

Next:
query: # bool: z-score of `Cc1c(NC(=O)/C(C#N)=C/c2cccc([N+](=O)[O-])c2)c(=O)n(-c2ccccc2)n1C` >= 0.3
result: Not satisfied
